- measured target: UniProtKB P04626
- assay summary: Inhibition of ErbB2
Each item that follows carries a reported IC50.
Quick note: give the figure in nM, leave out the unit.

Consider the reported IC50 for these compounds:
- compound structure string: "CN1CCN([C@H]2CC[C@@H](n3nc(-c4ccc(Nc5nc6cccc(Cl)c6o5)cc4)c4c(N)ncnc43)CC2)CC1"
  unit of measurement: "nM"
  IC50: 200
- compound structure string: "CN1CCN([C@H]2CC[C@H](n3nc(-c4ccc(Nc5nc6cccc(Cl)c6o5)cc4)c4c(N)ncnc43)CC2)CC1"
  unit of measurement: "nM"
  IC50: 7.5
- compound structure string: "CN1CCN([C@H]2CC[C@H](n3nc(-c4ccc(Nc5nc6cccc(Cl)c6o5)c(Cl)c4)c4c(N)ncnc43)CC2)CC1"
  unit of measurement: "nM"
  IC50: 29

With those in mind, consider the next compound.
Query: // lookup IC50 for CC(C)N1CCN([C@H]2CC[C@H](n3nc(-c4ccc(Nc5nc6cccc(Cl)c6o5)cc4)c4c(N)ncnc43)CC2)CC1
Result: 9.8

* * *

Each item that follows carries a reported log10 IC50.
- measured target: Epidermal growth factor receptor (Homo sapiens, UniProt P04626+P00533+Q15303+P21860)
- assay summary: Inhibition of EGFR L858 mutant
- Format: protein assay
// do not treat as linear: log10 of IC50, unit nM

Consider the reported log10 IC50 for these compounds:
- compound structure string: "CC(C)N1CCN([C@H]2CC[C@H](n3nc(-c4ccc(Nc5nc6cccc(Cl)c6o5)cc4)c4c(N)ncnc43)CC2)CC1"
  log10 IC50: 1.73
- compound structure string: "Cc1cc(-c2nn([C@H]3CC[C@H](N4CCN(C)CC4)CC3)c3ncnc(N)c23)ccc1Nc1nc2cccc(Cl)c2o1"
  log10 IC50: 2.19
- compound structure string: "CN1CCN([C@H]2CC[C@@H](n3nc(-c4ccc(Nc5nc6ccccc6o5)cc4)c4c(N)ncnc43)CC2)CC1"
  log10 IC50: 3.22
- compound structure string: "CN1CCC(N2CCC(n3nc(-c4ccc(Nc5nc6cccc(Cl)c6o5)cc4)c4c(N)ncnc43)CC2)CC1"
  log10 IC50: 2.00
- compound structure string: "CN1CCN([C@H]2CC[C@H](n3nc(-c4ccc(Nc5nc6cccc(Cl)c6o5)c(F)c4)c4c(N)ncnc43)CC2)CC1"
  log10 IC50: 1.57

Query: // lookup log10 IC50 for COCCCN1CCN([C@H]2CC[C@H](n3nc(-c4ccc(Nc5nc6cccc(Cl)c6o5)cc4)c4c(N)ncnc43)CC2)CC1
Result: 2.03

Query: Entry to check: Cc1cc(Cl)c2oc(Nc3ccc(-c4nn([C@H]5CC[C@@H](N6CCN(C)CC6)CC5)c5ncnc(N)c45)cc3)nc2c1
Result: 3.05

* * *

- assay summary: Tmax in po dosed rat
- Type: ADME, organism-based
- experimental context: in vivo
quantity measured: Tmax (h)
Quick note: give the figure in h, leave out the unit.

Query: // lookup Tmax for CN1CCN([C@H]2CC[C@H](n3nc(-c4ccc(Nc5nc6cccc(Cl)c6o5)cc4)c4c(N)ncnc43)CC2)CC1
Result: 8

* * *

- measured target: Insulin-like growth factor 1 receptor (Homo sapiens)
- Sequence (P08069 31-736 limits assumed): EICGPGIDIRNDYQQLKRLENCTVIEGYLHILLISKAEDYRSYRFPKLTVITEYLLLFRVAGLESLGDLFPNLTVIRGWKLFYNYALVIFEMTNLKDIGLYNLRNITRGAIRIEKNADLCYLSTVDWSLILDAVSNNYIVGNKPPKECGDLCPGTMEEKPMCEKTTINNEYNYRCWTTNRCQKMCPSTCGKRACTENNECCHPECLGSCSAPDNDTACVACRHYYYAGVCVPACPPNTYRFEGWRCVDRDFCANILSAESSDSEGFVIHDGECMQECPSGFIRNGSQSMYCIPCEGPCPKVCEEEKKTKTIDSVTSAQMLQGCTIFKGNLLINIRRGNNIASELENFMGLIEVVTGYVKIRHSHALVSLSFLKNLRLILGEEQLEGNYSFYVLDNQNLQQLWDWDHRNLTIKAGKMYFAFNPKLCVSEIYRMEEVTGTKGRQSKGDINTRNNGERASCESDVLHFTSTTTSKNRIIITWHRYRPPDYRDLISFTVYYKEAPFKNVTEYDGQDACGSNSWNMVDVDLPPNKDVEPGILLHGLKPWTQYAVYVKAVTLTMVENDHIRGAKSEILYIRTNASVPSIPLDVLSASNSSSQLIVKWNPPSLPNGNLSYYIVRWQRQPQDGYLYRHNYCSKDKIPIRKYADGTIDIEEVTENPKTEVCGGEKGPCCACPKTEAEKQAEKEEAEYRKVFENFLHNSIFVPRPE
- Sequence (P08069 741-1367 limits assumed): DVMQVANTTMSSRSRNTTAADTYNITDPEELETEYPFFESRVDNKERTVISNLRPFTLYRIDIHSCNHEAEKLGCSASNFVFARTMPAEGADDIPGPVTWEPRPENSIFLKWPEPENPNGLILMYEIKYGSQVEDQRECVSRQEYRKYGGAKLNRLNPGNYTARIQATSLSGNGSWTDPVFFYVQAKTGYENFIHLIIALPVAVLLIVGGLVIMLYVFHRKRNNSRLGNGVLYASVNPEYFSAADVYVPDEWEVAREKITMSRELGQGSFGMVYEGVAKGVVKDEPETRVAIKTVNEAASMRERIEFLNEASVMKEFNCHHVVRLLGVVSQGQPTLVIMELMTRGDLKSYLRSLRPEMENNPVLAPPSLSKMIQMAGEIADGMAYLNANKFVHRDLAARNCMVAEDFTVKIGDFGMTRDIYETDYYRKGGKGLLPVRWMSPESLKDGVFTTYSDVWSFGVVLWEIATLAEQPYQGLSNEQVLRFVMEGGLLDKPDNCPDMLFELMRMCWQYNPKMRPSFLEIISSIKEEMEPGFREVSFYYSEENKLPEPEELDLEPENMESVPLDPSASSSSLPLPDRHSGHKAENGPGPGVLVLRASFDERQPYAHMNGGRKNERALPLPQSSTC
- assay summary: Inhibition of IGF1R
// classify: if (IC50 < 100 nM) Yes else No

Some solved entries appear below for comparison.
- compound structure string: "Cc1cc(Nc2nc3cccc(Cl)c3o2)ccc1-c1nn([C@H]2CC[C@H](N3CCN(C)CC3)CC2)c2ncnc(N)c12"
  cat: "Yes"
- compound structure string: "COCCCN1CCC(N2CCC(n3nc(-c4ccc(Nc5nc6cccc(Cl)c6o5)cc4)c4c(N)ncnc43)CC2)CC1"
  cat: "No"
- compound structure string: "CN(C)C(=O)CN1CCN([C@H]2CC[C@H](n3nc(-c4ccc(Nc5nc6cccc(Cl)c6o5)cc4)c4c(N)ncnc43)CC2)CC1"
  cat: "No"
- compound structure string: "COC(=O)c1cccc2nc(Nc3ccc(-c4nn([C@H]5CC[C@@H](N6CCN(C)CC6)CC5)c5ncnc(N)c45)cc3)oc12"
  cat: "No"
- compound structure string: "CN1CCN([C@H]2CC[C@H](n3nc(-c4ccc(Nc5nc6cccc(Cl)c6o5)c(F)c4)c4c(N)ncnc43)CC2)CC1"
  cat: "Yes"

Here is another molecule to look at.
Query: I'd appreciate it if you could check whether Cc1cc(Cl)c2oc(Nc3ccc(-c4nn([C@H]5CC[C@@H](N6CCN(C)CC6)CC5)c5ncnc(N)c45)cc3)nc2c1 has IC50 smaller than 100 nM.
Result: No

* * *

- measured target: Epidermal growth factor receptor (Homo sapiens)
- assay summary: Inhibition of EGFR phosphorylation in human MIAPaCa cells by ELISA
pEC50: −log10 of the molar value.
quantity measured: pEC50

- compound structure string: "CN1CCN([C@H]2CC[C@H](n3nc(-c4ccc(Nc5nc6cccc(Cl)c6o5)cc4)c4c(N)ncnc43)CC2)CC1"
  measured target: "Epidermal growth factor receptor (Homo sapiens)"
  pEC50: "< 6.00"

With those in mind, consider the next molecule.
Query: // lookup pEC50 for CN1CCN([C@H]2CC[C@H](n3nc(-c4ccc(Nc5nc6cccc(Cl)c6o5)c(F)c4)c4c(N)ncnc43)CC2)CC1
Result: < 6.00

* * *

- assay summary: Cmax in C57BL/6 mouse at 10 mg/kg, po
- Format: ADME, organism-based
- Design: dose 10 mg/kg, route oral
- experimental context: in vivo
quantity measured: Cmax
Kindly write the number and append the unit.

Query: // lookup Cmax for CN1CCN([C@H]2CC[C@H](n3nc(-c4ccc(Nc5nc6cccc(Cl)c6o5)cc4)c4c(N)ncnc43)CC2)CC1
Result: 170 nM

* * *

- measured target: Receptor tyrosine-protein kinase erbB-2 (Homo sapiens, UniProt P04626)
- Sequence (P04626 whole entry): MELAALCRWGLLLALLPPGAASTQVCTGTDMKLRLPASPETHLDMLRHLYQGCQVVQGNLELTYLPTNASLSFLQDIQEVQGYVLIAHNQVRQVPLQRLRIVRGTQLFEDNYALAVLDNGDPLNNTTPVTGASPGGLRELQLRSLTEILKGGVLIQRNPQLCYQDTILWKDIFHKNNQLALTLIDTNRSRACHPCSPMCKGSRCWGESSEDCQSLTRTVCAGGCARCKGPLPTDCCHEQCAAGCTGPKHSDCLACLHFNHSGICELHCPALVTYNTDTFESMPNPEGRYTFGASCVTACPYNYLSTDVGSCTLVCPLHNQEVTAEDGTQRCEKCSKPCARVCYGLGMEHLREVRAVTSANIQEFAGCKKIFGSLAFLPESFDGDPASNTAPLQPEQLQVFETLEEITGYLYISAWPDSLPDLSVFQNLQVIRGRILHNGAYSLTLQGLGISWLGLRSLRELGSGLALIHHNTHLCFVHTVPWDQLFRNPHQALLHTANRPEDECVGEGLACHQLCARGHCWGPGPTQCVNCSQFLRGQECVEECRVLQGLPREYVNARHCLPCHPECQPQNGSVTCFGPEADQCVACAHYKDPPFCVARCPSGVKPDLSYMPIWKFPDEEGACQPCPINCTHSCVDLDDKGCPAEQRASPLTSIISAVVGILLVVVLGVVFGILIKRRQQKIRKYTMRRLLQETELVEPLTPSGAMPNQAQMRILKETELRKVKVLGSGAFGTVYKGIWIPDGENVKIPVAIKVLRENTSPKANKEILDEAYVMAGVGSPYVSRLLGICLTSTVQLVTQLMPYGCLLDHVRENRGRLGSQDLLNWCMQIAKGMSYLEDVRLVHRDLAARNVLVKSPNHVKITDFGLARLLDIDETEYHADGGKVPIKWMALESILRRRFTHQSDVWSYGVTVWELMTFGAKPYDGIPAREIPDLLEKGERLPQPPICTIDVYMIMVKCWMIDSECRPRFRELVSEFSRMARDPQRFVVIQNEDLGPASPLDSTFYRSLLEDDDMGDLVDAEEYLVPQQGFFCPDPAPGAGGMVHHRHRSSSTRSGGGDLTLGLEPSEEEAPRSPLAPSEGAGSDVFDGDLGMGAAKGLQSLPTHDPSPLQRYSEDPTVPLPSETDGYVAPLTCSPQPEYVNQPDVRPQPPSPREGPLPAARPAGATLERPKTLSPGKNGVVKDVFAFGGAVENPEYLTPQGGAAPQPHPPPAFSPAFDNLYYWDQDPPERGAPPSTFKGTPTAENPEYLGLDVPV
- assay summary: Inhibition of ErbB2
quantity measured: IC50 (nM)
Quick note: give the figure in nM, leave out the unit.

Consider the reported IC50 for these molecules:
- compound structure string: "CN1CCN([C@H]2CC[C@H](n3nc(-c4ccc(Nc5nc6cccc(Cl)c6o5)c(F)c4)c4c(N)ncnc43)CC2)CC1"
  measured target: "Receptor tyrosine-protein kinase erbB-2 (Homo sapiens, UniProt P04626)"
  IC50, nM: 16
- compound structure string: "CN1CCN([C@H]2CC[C@@H](n3nc(-c4ccc(Nc5nc6cccc(Cl)c6o5)c(F)c4)c4c(N)ncnc43)CC2)CC1"
  measured target: "Receptor tyrosine-protein kinase erbB-2 (Homo sapiens, UniProt P04626)"
  IC50, nM: 1350
- compound structure string: "CN1CCN([C@H]2CC[C@H](n3nc(-c4ccc(Nc5nc6cccc(Cl)c6o5)cc4Cl)c4c(N)ncnc43)CC2)CC1"
  measured target: "Receptor tyrosine-protein kinase erbB-2 (Homo sapiens, UniProt P04626)"
  IC50, nM: 15.4
- compound structure string: "COCCCN1CCN([C@H]2CC[C@H](n3nc(-c4ccc(Nc5nc6cccc(Cl)c6o5)cc4)c4c(N)ncnc43)CC2)CC1"
  measured target: "Receptor tyrosine-protein kinase erbB-2 (Homo sapiens, UniProt P04626)"
  IC50, nM: 21.5
- compound structure string: "CN(C)C(=O)CN1CCN([C@H]2CC[C@H](n3nc(-c4ccc(Nc5nc6cccc(Cl)c6o5)cc4)c4c(N)ncnc43)CC2)CC1"
  measured target: "Receptor tyrosine-protein kinase erbB-2 (Homo sapiens, UniProt P04626)"
  IC50, nM: 21.5

Query: // lookup IC50 for CC(C)N1CCC(N2CCC(n3nc(-c4ccc(Nc5nc6cccc(Cl)c6o5)cc4)c4c(N)ncnc43)CC2)CC1
Result: 15.1

Query: Entry to check: COCCCN1CCN([C@H]2CC[C@@H](n3nc(-c4ccc(Nc5nc6cccc(Cl)c6o5)cc4)c4c(N)ncnc43)CC2)CC1
Result: 397

* * *

- assay summary: Clearance in iv dosed C57BL/6 mouse
- Assay type: ADME, organism-based
- experimental context: in vivo
quantity measured: clearance (mL/min/kg)
Quick note: give the figure in mL/min/kg, leave out the unit.

Query: // lookup clearance for CN1CCN([C@H]2CC[C@H](n3nc(-c4ccc(Nc5nc6cccc(Cl)c6o5)cc4)c4c(N)ncnc43)CC2)CC1
Result: 31.8

* * *

- measured target: Epidermal growth factor receptor (Homo sapiens, UniProt P04626+P00533+Q15303+P21860)
- assay summary: Inhibition of EGFR L858 mutant
- Type: protein assay
quantity measured: log10 IC50 (log10 of the value in nM)
// do not treat as linear: log10 of IC50, unit nM

- compound structure string: "Nc1ncnc2c1c(-c1ccc(Nc3nc4cccc(Cl)c4o3)cc1)nn2[C@H]1CC[C@H](N2CCOCC2)CC1"
  measured target: "Epidermal growth factor receptor (Homo sapiens, UniProt P04626+P00533+Q15303+P21860)"
  result number: 3.01
- compound structure string: "CN1CCN([C@H]2CC[C@H](n3nc(-c4ccc(Nc5nc6cccc(Cl)c6o5)cc4)c4c(N)ncnc43)CC2)CC1"
  measured target: "Epidermal growth factor receptor (Homo sapiens, UniProt P04626+P00533+Q15303+P21860)"
  result number: 1.50
- compound structure string: "Cc1cc(Nc2nc3cccc(Cl)c3o2)ccc1-c1nn([C@H]2CC[C@H](N3CCN(C)CC3)CC2)c2ncnc(N)c12"
  measured target: "Epidermal growth factor receptor (Homo sapiens, UniProt P04626+P00533+Q15303+P21860)"
  result number: 2.72
- compound structure string: "CC(C)N1CCC(N2CCC(n3nc(-c4ccc(Nc5nc6cccc(Cl)c6o5)cc4)c4c(N)ncnc43)CC2)CC1"
  measured target: "Epidermal growth factor receptor (Homo sapiens, UniProt P04626+P00533+Q15303+P21860)"
  result number: 1.99

Query: Hi! What's the reported log10 IC50 for CC(C)N1CCN([C@H]2CC[C@@H](n3nc(-c4ccc(Nc5nc6cccc(Cl)c6o5)cc4)c4c(N)ncnc43)CC2)CC1 on Epidermal growth factor receptor (Homo sapiens, UniProt P04626+P00533+Q15303+P21860)?
Result: 2.51

Query: Entry to check: CN1CCN([C@H]2CC[C@@H](n3nc(-c4ccc(Nc5nc6cccc(C#N)c6o5)cc4)c4c(N)ncnc43)CC2)CC1
Result: 3.45

Query: Entry to check: CN1CCN([C@H]2CC[C@@H](n3nc(-c4ccc(Nc5nc6cccc(Cl)c6o5)c(F)c4)c4c(N)ncnc43)CC2)CC1
Result: 2.93
